Target: Programmed cell death protein 1/Programmed cell death 1 ligand 1 (Homo sapiens, UniProt Q15116+Q9NZQ7)
Sequence (Q15116 whole entry): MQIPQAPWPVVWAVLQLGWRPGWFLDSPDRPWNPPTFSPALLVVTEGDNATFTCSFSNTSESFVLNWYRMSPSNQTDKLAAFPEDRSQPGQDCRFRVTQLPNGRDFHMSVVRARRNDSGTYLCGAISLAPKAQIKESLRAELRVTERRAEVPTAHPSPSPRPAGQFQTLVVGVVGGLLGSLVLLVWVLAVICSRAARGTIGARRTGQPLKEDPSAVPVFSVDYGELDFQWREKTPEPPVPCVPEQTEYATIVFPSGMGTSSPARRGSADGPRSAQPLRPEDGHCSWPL
Sequence (Q9NZQ7 whole entry): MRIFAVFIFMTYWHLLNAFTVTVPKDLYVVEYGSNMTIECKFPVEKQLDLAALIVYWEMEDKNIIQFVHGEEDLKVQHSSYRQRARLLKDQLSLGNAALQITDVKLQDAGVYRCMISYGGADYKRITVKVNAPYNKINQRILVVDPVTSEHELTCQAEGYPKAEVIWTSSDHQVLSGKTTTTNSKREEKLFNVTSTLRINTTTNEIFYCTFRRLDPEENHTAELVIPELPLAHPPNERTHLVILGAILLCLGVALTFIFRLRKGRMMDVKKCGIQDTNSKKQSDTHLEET
Assay: Homogeneous Time-Resolved Fluorescence (HTRF) Binding Assay: 1. The compound was formulated to 10 concentrations with a 3-fold gradient with 100% DMSO.2. The solution of the compound in DMSO was added to Dilute Buffer, mixed thoroughly, then transferred to a 96-well plate.3. PD-L1 was diluted with Dilute Buffer, then added to the above 96-well plate.4. PD-1 was diluted with Dilute Buffer and added to the above 96-well plate, which was then incubated at room temperature for 30 minutes.5. A portion of anti-tag1-Eu and a portion of anti-tag2-XL665 were added to Detection Buffer, mixed thoroughly and transferred to the above 96-well plate.6. The mixture in the above 96-well plate was incubated at room temperature for 1 to 24 hours.7. HTRF values were read with Envision.
Format: protein-complex assay
measured-quantity: IC50 (µM)
// units = µM; emit number, no label

COc1cc(/C=C/c2cccc(-c3ccccc3)c2C)cc(OC)c1CN1CCCC[C@H]1C(=O)O
0.06
COc1cc(/C=C/c2cccc(-c3ccccc3)c2C)cc(OC)c1CN[C@H](CO)C(=O)O
0.08
COc1cc(/C=C/c2cccc(-c3ccccc3)c2C)cc(OC)c1CN[C@@H](CO)C(=O)O
0.05

// moving on: another record for IC50
Supply measured IC50 of COc1cc(/C=C/c2cccc(-c3ccccc3)c2C)cc(OC)c1CN[C@@H](C)C(=O)O in your reply.
0.17
